Let's go through some pKd measurements on Gal-1 (Homo sapiens) together.
Sequence (P09382 whole entry): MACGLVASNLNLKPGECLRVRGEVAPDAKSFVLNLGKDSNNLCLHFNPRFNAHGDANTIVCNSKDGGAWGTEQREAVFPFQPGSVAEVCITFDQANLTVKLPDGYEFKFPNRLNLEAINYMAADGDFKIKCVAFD
pKd: −log10 of the molar value.
Property Measured: pKd

Compound	pKd
COC(=O)c1ccccc1-n1cc(CO[C@@H]2[C@@H](OCc3nc4ccc(C(=O)O)cc4n3C)[C@@H](O)[C@@H](CO)O[C@@H]2Sc2ccc(Cl)c(Cl)c2)nn1 [Compound 15a]	4.16

1. Cn1c(CO[C@H]2[C@@H](O)[C@@H](CO)O[C@H](Sc3ccc(Cl)c(Cl)c3)[C@@H]2OCC2CCCCC2)nc2ccc(C(=O)O)cc21
2. Cn1c(CO[C@H]2[C@@H](O)[C@@H](CO)O[C@H](Sc3ccc(Cl)c(Cl)c3)[C@@H]2OCc2cn(-c3cccc(C(=O)O)c3)nn2)nc2ccc(C(=O)O)cc21 [Compound 16b]
Please let me know which one, 1 or 2 , has a lower measured pKd value. To answer, give the label that identifies your chosen option.
1

====

Let's go through some Kd measurements on Gal-1 (Homo sapiens) together.
Property Measured: Kd (µM)

Molecule	Kd (µM)
Cn1c(CO[C@H]2[C@@H](O)[C@@H](CO)O[C@H](Sc3ccc(Cl)c(Cl)c3)[C@@H]2OCC2CCC2)nc2ccc(C(=O)O)cc21 [Compound 25]	16

A. Cn1c(CO[C@H]2[C@@H](O)[C@@H](CO)O[C@H](Sc3ccc(Cl)c(Cl)c3)[C@@H]2OCc2cn(-c3ccccc3C(=O)O)nn2)nc2ccc(C(=O)O)cc21 [Compound 16a]
B. C#CCO[C@@H]1[C@@H](OCc2nc3ccc(C(=O)O)cc3n2C)[C@@H](O)[C@@H](CO)O[C@@H]1Sc1ccc(Cl)c(Cl)c1 [Compound 11]
Please let me know which one, A or B , has a lower measured Kd value. To answer, give the label that identifies your chosen option.
B
(B: 10 µM, A: 26 µM)

====

Study Target: Gal-8N (galectin-8 N-terminal domain) (Homo sapiens, UniProt O00214)
Construct: made in house
Sequence (O00214 19-152 limits assumed): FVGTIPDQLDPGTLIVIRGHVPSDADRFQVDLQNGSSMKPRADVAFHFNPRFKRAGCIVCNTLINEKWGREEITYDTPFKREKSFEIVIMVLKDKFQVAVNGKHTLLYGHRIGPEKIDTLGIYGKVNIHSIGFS
Experiment Description: competitive fluorescence polarisation assay, Gal-8N
Assay type: binding
Test Parameters: competitive FP, mean ± SEM of n = 4 to 8, 20 °C; read-out: Kd Gal-8N
pKd: −log10 of the molar value.
Property Measured: pKd

// solved cases for pKd follow
Compound	Study Target	pKd
CO[C@@H]1[C@@H](OCc2nc3ccc(C(=O)O)cc3n2C)[C@@H](O)[C@@H](CO)O[C@@H]1Sc1ccc(Cl)c(Cl)c1	Gal-8N (galectin-8 N-terminal domain) (Homo sapiens, UniProt O00214)	5.89
COC(=O)c1ccccc1-n1cc(CO[C@@H]2[C@@H](OCc3nc4ccc(C(=O)O)cc4n3C)[C@@H](O)[C@@H](CO)O[C@@H]2Sc2ccc(Cl)c(Cl)c2)nn1 [Compound 15a]	Gal-8N (galectin-8 N-terminal domain) (Homo sapiens, UniProt O00214)	5.46
Cn1c(CO[C@H]2[C@@H](O)[C@@H](CO)O[C@H](Sc3ccc(Cl)c(Cl)c3)[C@@H]2OCc2ccc(Cl)c(Cl)c2)nc2ccc(C(=O)O)cc21	Gal-8N (galectin-8 N-terminal domain) (Homo sapiens, UniProt O00214)	5.37

1. Cn1c(CO[C@H]2[C@@H](O)[C@@H](CO)O[C@H](Sc3ccc(Cl)c(Cl)c3)[C@@H]2OCC2CCCCC2)nc2ccc(C(=O)O)cc21
2. Cn1c(CO[C@H]2[C@@H](O)[C@@H](CO)O[C@H](Sc3ccc(Cl)c(Cl)c3)[C@@H]2OCc2cccc(Cl)c2)nc2ccc(C(=O)O)cc21
3. Cn1c(CO[C@H]2[C@@H](O)[C@@H](CO)O[C@H](Sc3ccc(Cl)c(Cl)c3)[C@@H]2OCc2cn(-c3ccccc3C(=O)O)nn2)nc2ccc(C(=O)O)cc21 [Compound 16a]
Task for the reader: rank each entry by its pKd, from the minimum upward. // list labels; follow requested order
1, 2, 3
(1: 5.39, 2: 5.74, 3: 6.34)

====

pKd: −log10 of the molar value.
Let's go through some pKd measurements on UniProt:P09382 together.
Property Measured: pKd

Compound	pKd
COC(=O)c1ccc(-n2cc(CO[C@@H]3[C@@H](OCc4nc5ccc(C(=O)O)cc5n4C)[C@@H](O)[C@@H](CO)O[C@@H]3Sc3ccc(Cl)c(Cl)c3)nn2)cc1 [Compound 15c]	4.00

1. COC(=O)c1cccc(-n2cc(CO[C@@H]3[C@@H](OCc4nc5ccc(C(=O)O)cc5n4C)[C@@H](O)[C@@H](CO)O[C@@H]3Sc3ccc(Cl)c(Cl)c3)nn2)c1 [Compound 15b]
2. Cn1c(CO[C@H]2[C@@H](O)[C@@H](CO)O[C@H](Sc3ccc(Cl)c(Cl)c3)[C@@H]2OCc2cn(-c3ccc(C(=O)O)cc3)nn2)nc2ccc(C(=O)O)cc21 [Compound 16c]
Just curious, which one has the larger pKd reading, 1 or 2 ? To answer, give the label that identifies your chosen option.
2
(2: 4.35, 1: 3.98)

====

Study Target: UniProt O00214
Sequence (O00214 187-317 limits assumed): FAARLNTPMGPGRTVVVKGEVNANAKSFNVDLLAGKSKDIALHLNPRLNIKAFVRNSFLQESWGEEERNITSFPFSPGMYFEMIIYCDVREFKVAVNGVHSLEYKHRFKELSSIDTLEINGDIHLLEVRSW
Property Measured: Kd (µM)

Compound	Kd, µM
COC(=O)c1cccc(-n2cc(CO[C@@H]3[C@@H](OCc4nc5ccc(C(=O)O)cc5n4C)[C@@H](O)[C@@H](CO)O[C@@H]3Sc3ccc(Cl)c(Cl)c3)nn2)c1 [Compound 15b]	568
Cn1c(CO[C@H]2[C@@H](O)[C@@H](CO)O[C@H](Sc3ccc(Cl)c(Cl)c3)[C@@H]2OCc2cn(-c3ccccc3C(=O)O)nn2)nc2ccc(C(=O)O)cc21 [Compound 16a]	159
Cn1c(CO[C@H]2[C@@H](O)[C@@H](CO)O[C@H](Sc3ccc(Cl)c(Cl)c3)[C@@H]2OCC2CCC2)nc2ccc(C(=O)O)cc21	383

I. Cn1c(CO[C@H]2[C@@H](O)[C@@H](CO)O[C@H](Sc3ccc(Cl)c(Cl)c3)[C@@H]2OCC2CCCCC2)nc2ccc(C(=O)O)cc21
II. COC(=O)c1ccc(-n2cc(CO[C@@H]3[C@@H](OCc4nc5ccc(C(=O)O)cc5n4C)[C@@H](O)[C@@H](CO)O[C@@H]3Sc3ccc(Cl)c(Cl)c3)nn2)cc1 [Compound 15c]
III. Cn1c(CO[C@H]2[C@@H](O)[C@@H](CO)O[C@H](Sc3ccc(Cl)c(Cl)c3)[C@@H]2OCc2cccc(Cl)c2)nc2ccc(C(=O)O)cc21
IV. Cn1c(CO[C@H]2[C@@H](O)[C@@H](CO)O[C@H](Sc3ccc(Cl)c(Cl)c3)[C@@H]2OCc2cn(-c3cccc(C(=O)O)c3)nn2)nc2ccc(C(=O)O)cc21 [Compound 16b]
Task for the reader: rank each entry by its Kd, from the minimum upward. // list labels; follow requested order
IV, III, II, I
(IV: 100 µM, III: 225 µM, II: 350 µM, I: 662 µM)

====

Study Target: Gal-8N (galectin-8 N-terminal domain) (Homo sapiens, UniProt O00214)
Construct: made in house
Sequence (O00214 19-152 limits assumed): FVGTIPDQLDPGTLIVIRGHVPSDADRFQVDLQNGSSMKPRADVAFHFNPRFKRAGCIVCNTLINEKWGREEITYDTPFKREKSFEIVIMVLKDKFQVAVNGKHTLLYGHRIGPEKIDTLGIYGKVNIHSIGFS
Experiment Description: competitive fluorescence polarisation assay, Gal-8N
Type: binding
Set-up: key: n. s.: n.s. = non-soluble at tested concentration; n. b.: n.b. = non-binding up to the highest tested concentration of 1500 µM
Test Parameters: ester compounds, competitive FP, highest tested concentration 1500 µM
Property Measured: Kd (Galectin-8N)

Compound	Property Measured	Recorded Value
COC(=O)c1ccc2nc(CO[C@H]3[C@@H](O)[C@@H](CO)O[C@H](Sc4ccc(Cl)c(Cl)c4)[C@@H]3OC)n(C)c2c1 [Compound 31]	Kd (Galectin-8N)	n. s.
COC(=O)c1ccc2nc(CO[C@H]3[C@@H](O)[C@@H](CO)O[C@H](Sc4ccc(Cl)c(Cl)c4)[C@@H]3OCC3CCC3)n(C)c2c1 [Compound 24]	Kd (Galectin-8N)	n. s.
COC(=O)c1ccc2nc(CO[C@H]3[C@@H](O)[C@@H](CO)O[C@H](Sc4ccc(Cl)c(Cl)c4)[C@@H]3OCc3ccccc3)n(C)c2c1 [Compound 7a]	Kd (Galectin-8N)	n. s.
